Test system: Mus musculus
ASSAY_METHOD_TEXT: Antiinflammatory activity against dextrane disodium sulfate-induced ulcerative colitis in BALB/c mouse assessed as diseased animal with large intestine bleeding at 250 mg/kg administered 1 hr before dextrane disodium sulfate challenge
Format: functional
Property: Activity; scope: individual compounds
Please reply with the bare figure in % and do not write the unit itself.

CN(CCc1ccccc1)C(=O)Cc1ccc(OCCOc2ccc(CCCC(=O)O)cc2)cc1    100
CC(CCc1ccc(OCCCCOc2ccc(CC(=O)N(C)CCc3ccccc3)cc2)cc1)C(=O)O (centres undefined)    60
COc1cc(/C=C/C(=O)O)ccc1OCCOc1ccc(CC(=O)N(C)CCc2ccccc2)cc1    40
COc1cc(CCC(=O)O)ccc1OCCCCOc1ccc(CC(=O)N(C)CCc2ccccc2)cc1    100

Using the record for CN(CCc1ccccc1)C(=O)Cc1ccc(OCCCCOc2ccc(CCCC(=O)O)cc2)cc1 , report its Activity.
100

Using the record for CC(C(=O)O)c1cccc2ccc(OCCCCOc3ccc(CC(=O)NCCc4ccccc4)cc3)cc12 (centres undefined) , report its Activity.
80

Using the record for O=C(O)c1cc(/N=N/c2ccc(S(=O)(=O)Nc3ccccn3)cc2)ccc1O [SULFASALAZINE] , report its Activity.
80

Using the record for CC(C(=O)O)c1ccc(OCCCCOc2ccc(CC(=O)N(C)CCc3ccccc3)cc2)c(Cl)c1 (centres undefined) , report its Activity.
60

Using the record for CC(C(=O)O)c1ccc(OCCCCOc2ccc(CC(=O)N(C)CCc3ccccc3)cc2)cc1 (centres undefined) , report its Activity.
100
